Test system: MCF-12A
Assay: Antiproliferative activity against human MCF-12A cells assessed as reduction in cell viability measured after 5 days by PrestoBlue reagent based assay
Assay type: functional
Details: 120 h
readoutKind: EC50 (µM)
Reply with just the number (in µM).

## Task Returns the measured EC50 for the input molecule. Input: Br.Cc1ccc(S(=O)(=O)NCc2cccc(CNC(=N)c3ccccc3)c2)cc1
## Result 79

====

Experiment: Metabolic stability in rat liver microsome assessed as half life pretreated for 5 mins followed by NADPH and measured after 60 mins by HPLC analysis
Type: ADME
Conditions: liver microsomes, time 65 min
readoutKind: half-life (min)
Use min as the unit, but write only the number.

## Task Can you look up the measured half-life of Br.Cc1ccc(S(=O)(=O)NCc2cccc(CNC(=N)c3ccccc3)c2)cc1 for me?
## Result 38
